Where do the numbers come from? From the supplement of paper PMC9170038.

Recorded apparent KD of K4 kissing-loop reporter by entry
# Test system: K4 kissing-loop RNA reporter
# experiment.description: apparent KD of K4 kissing-loop reporter; higher = weaker reporter binding
# settings: Eterna round: R107; input ligand: none
Only the number, expressed in nM, is required.

construct.sequence | u | apparent KD of K4 kissing-loop reporter
AGAGAGGUGUUUUUUUGAAGUGAGUAAUGGCGAGGACCGGUACGGCCGCCACUCGGGUGAUGUUAGUGAUGUUGAUGUAGUGAUG [yrymullin] | nM | 66.3

Ask | For AUAGCACCUUAUGAUACCAGACGAGUGAUGUUCUGUGGUGUCGUCACAAGGCAAUCGACUGUCCCUUGGCAGCAUCAUUCUAUAU [theeternabot_exclusion_KL_Theo_B_31] , what is its reported apparent KD of K4 kissing-loop reporter?
Reply | 453

Ask | For CGCAGUGAUGUUGCUAUUGUUCUUGGUUAACGAGGACCGGUACGGCCGCCACUCGAUGUCUGUCUAGUCCAGUGUUUUUUUGAGU [whbob_EX_Tryp_A_t9] , what is its reported apparent KD of K4 kissing-loop reporter?
Reply | 592

Ask | For GCCGUACGCAUGGAUACCAGCAUUUAUGACACACUGCUAGUGAUGUUAGCUAUGCGUAUAUGCCCUUGGCAGCCAUGCGUACGGC , what is its reported apparent KD of K4 kissing-loop reporter?
Reply | 140

Ask | For UGACUUGCCUGAGGAUAUCUAGGAUAUCCAUAAAAGGAAAUAAUAGUUCAGUGAUGUUGGAGAAGGAGAGAAGGCAGGUAAGUCU [KL-XFMN-B18 #DoubleAptamer #SwitchBubble] , what is its reported apparent KD of K4 kissing-loop reporter?
Reply | 493

Ask | For UGUCAUUGGUCGGCCGCCACUUCGUGUGGAGUGAUGUUUUGUAGAUUGUGUUGAAAGGUAUGGUGAAGGACCGGGACCGAUGACU [FiskerMod 21 - Jieux - Same State - Tryptophan B] , what is its reported apparent KD of K4 kissing-loop reporter?
Reply | 1090

Ask | For GGCACUUUUGGUAGACACCAUCUACCUCUAUAGGAUAUGCCGAAAGGCAGAAGGAUAGACCUACAGAGUGAUGUUCUGCGUGCCU , what is its reported apparent KD of K4 kissing-loop reporter?
Reply | 1230

###

Recorded apparent KD of K4 kissing-loop reporter by entry
# Tested on: K4 kissing-loop RNA reporter;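 note: bound reporter read as fluorescence of individual clusters on recovered sequencing chips by microscopy, with normalized cluster intensities fitted with a binding model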
# experiment.description: apparent KD of K4 kissing-loop reporter; higher = weaker reporter binding
# settings: Eterna round: R107; input ligand: theophylline 20 uM
Only the number, expressed in nM, is required.

Example entries and their recorded answers appear below.
construct.sequence | quantity.measured | numeric.result
AGGUCCGAGCCCGGAAGGGCUCGGACCUGUUAGGAUAUGACGUUAUUCAGAAGGGAUGGGUGGAGUGAUGUUCCACCCGCAAGGG [#2 Same State - FMN A Attempt #9 (HarryS)] | apparent KD of K4 kissing-loop reporter | 102
AUACGUUUAAGUGAUACCAGACAUGUGAGUGAUGUUUACAUAUAUAUUUAAUAUUUAGCUGUCCCUUGGCAGCACAGUUUAUUUA [JR_ExcTheophyB_Sub001] | apparent KD of K4 kissing-loop reporter | 399
AAACAACGUGACGAUACCAGCUUACUCGGCAAGCCAGUGAUGUUGGUGAAAAGGAGUCAAAGCCCUUGGCAGCGUCGAAGGUUUG [Leteon] | apparent KD of K4 kissing-loop reporter | 138
CGACUAGUCUUGCAACCCUAGUCGAUAGACUAGGAUAUCAGGAAACUGAGAAGGAGUCUACUUGCAGUGAUGUUGCAAGAAUAAU [[F]''-[K]'-[F]'-[F1]-[F2]-[K1]-[K2]_Design6] | apparent KD of K4 kissing-loop reporter | 168
AACGCUGCCUGAGGAUAUAGAAACGAGUGAUGUUCGUGGAACGAGACCAGUGAUGUUGGCCUAUUUCUAGAAGGCAGGCAACCGC [Exclusion FMN B GF 1] | apparent KD of K4 kissing-loop reporter | 123
CAUACGAAGCAGUGAUGUUGCUUAUGAGAAGGAGCGCACGAAAGUGCAGGUAGGUCGCUCAGCCAUGUGGACGAAAACGUCCACA [whbob_SS_Arginine_A_sa112] | apparent KD of K4 kissing-loop reporter | 265
GGUUUCUGAAGUGAUGUUUCAGGAUGACACAAGGAUAUAUAUGGCGAUAGAAGGUGUGCGUCGCAUGACGAACGACGUCAGCUUC [theeternabot_exclusion_KL_FMN_A_37] | apparent KD of K4 kissing-loop reporter | 123
UGGAUGUAGUGAUGUUAUAUAGAGAGUGAUACCAGUUUAGAGAAGAACCCUUGGCAGCAUAGAAGAGUAUCAUUGGAGAAGAAUG [ExTheophyl.Ar] | apparent KD of K4 kissing-loop reporter | 334
CUGACCAACAGCGAUACCAGUGUGGAGUGAUGUUCCCUGGUCCGGGCUGAUGUUCCCUUGCGCCCUUGGCAGCGCAGAAGCAGGU [Exclusion Theophylline B GF 13] | apparent KD of K4 kissing-loop reporter | 349
GCGCGGCCCAGUGAUGUUGGGCCUCGGAGACGAGGACCGGUACGGCCGCCACUCGUCCGCGCAGCUGAGGCAAAAGCCUCGGCAA [Omei KL Tryp A SS B v6] | apparent KD of K4 kissing-loop reporter | 187

Ask | For GCGCGUCAUGUCAGCGGUGACACUGUCGAUACCAGCGCCGUAAGGCGCCCUUGGCAGCGACGUGCUGGAGUGAUGUUCCAGCGUC [#2 Exclusion - Theophylline A Attempt #20 (HarryS)] , what is its reported apparent KD of K4 kissing-loop reporter?
Reply | 126

Ask | For UUUAUUAAGACGGCCGCCACUGAUUCAUAGUGAUGUUAUGAUAUAAUUUUAGUGAUAUGCAUUAGCAGGACCGGGUCAAUUAUUA [JR_ExcTryptoB_Sub017] , what is its reported apparent KD of K4 kissing-loop reporter?
Reply | 142

Ask | For UUCAGGUGUUCGGCCGCCACUCCAGUGAUGUUGGAGUGGCUUCACAAGGGCCAGGACAAUGUAAGGAGGACCGGGAAUAUCGCAG [Quonerar] , what is its reported apparent KD of K4 kissing-loop reporter?
Reply | 89.2

Ask | For CAUACGCAUGGAGGAUAUGAGAUUUCUCAUAUUAUUUAAUAUUCUCAGUGAUGUUGAGAAAUAAACUCAGAAGGCCAUGUGUAUG [Ex FMN B 3] , what is its reported apparent KD of K4 kissing-loop reporter?
Reply | 405

Ask | For AAAAGAAGAAGUGAUACCAGACAAGCAGUGAUGUUGCGCCAAAGUGAGUGAUGUUCACCAGUCCCUUGGCAGCACAUGCCAAAAG [Same State Theophylline B GF 5] , what is its reported apparent KD of K4 kissing-loop reporter?
Reply | 839

Ask | For CGUGAGUGAUGUUCACGAGGCUUGUUUCUAGAGGAUAUUCACUUUAGAAGAAGGCUAGAGAUCUAUAUCGUGAUGCUCGAUAACG [FMN A Ex t1] , what is its reported apparent KD of K4 kissing-loop reporter?
Reply | 260

Ask | For AGGCACGAGCAAGGAUAUCGAGUAGAGUGAUGUUCUGCCUGGGUUGGCUCGGAAGAGCCUUCUCAGCGAGAAGGUGCUCGUGCCU [#2 Same State - FMN A Attempt #19 (HarryS)] , what is its reported apparent KD of K4 kissing-loop reporter?
Reply | 923

Ask | For GCCGUAGAUGGAAGGAGCGACUUCAGCGGAUAAACGUGACAAUUGGAGUGAUGUUCGCAAGGUCAGGUAGGUCGCCAUCUACGGC , what is its reported apparent KD of K4 kissing-loop reporter?
Reply | 274

Ask | For GGAUAGGACUGAGGAUAUGGGCUAGGCAAGAAUAACUUGUCUAGCAAAUCCAUGAGGAGUGAUGUUCCAGAAGGCGGUCCUAUCG [FmnBX 1 U10+G76] , what is its reported apparent KD of K4 kissing-loop reporter?
Reply | 173

Ask | For UAGUCCUAGUGAUCCUUAUCAAGUGGUGGGCGAGGACCGGUACGGCCGCCACUCGAAUAUGCAGUGAUGUUGUAAUCCGGAUAAU [Exclusion - Tryptophan A (Freestyle 10)] , what is its reported apparent KD of K4 kissing-loop reporter?
Reply | 846

Ask | For CCCUCACGAGUGAUGUUCGUAGGGUACAGUCAGGAUAUCAUGCGGUUGAGAAGGGACAGAGAGGGCGGCGGCGGGUUGCUCCUCU [Beeded] , what is its reported apparent KD of K4 kissing-loop reporter?
Reply | 711

Ask | For CACUCGGUAUCAGAUACCAGACUAACGAUACCGAGUGUAUCGGGUAGUGAUGUUACCAUAGUCCCUUGGCAGCUGAUAUUCCCUA [Theo B SS t9a] , what is its reported apparent KD of K4 kissing-loop reporter?
Reply | 210

Ask | For AAGAGUUGACGAAAAGUCAACUCACGAGAAGGAGCGCACGAAAGUGCAGGUAGGUCGCUCAGUCCAGUGAUGUUGGAACAUAAAA [#OpenEnded 7] , what is its reported apparent KD of K4 kissing-loop reporter?
Reply | 110
